From: patent US20110250135A1

Assay: Biodistribution: organ distribution of F-18 signal in mice
Assay type: in vivo, male NMRI mice
Details: skin, 240 min post i.v. injection
So I've got a bunch of compounds here, and I need their Organ distribution of F-18 signal, skin values.
Numbers only, in % ID/g.

1) O=C(NCC(=O)N1CCN(c2ccc(OCc3ccccc3)cc2)CC1)c1ccc([18F])nc1 [Example 10e]: 0.08
2) O=C(NCC(=O)N1CCN(c2ccc(OCc3ccccc3)cc2)CC1)c1ccnc([18F])c1 [Example 11c]: 0.10
3) O=C(NCC(=O)N1CCN(c2ccc(OCc3ccccc3)cc2)CC1)c1cccc(OCC[18F])c1 [Example 3g]: 0.42
4) O=C(NCC(=O)N1CCN(c2ccc(OCc3ccccc3)cc2)CC1)c1cccnc1[18F] [Example 12c]: 0.08

Then this compound:
Lookup result for O=C(NCC(=O)N1CCN(c2ccc(OCc3ccccc3)cn2)CC1)c1ccnc([18F])c1 [Example 14f] ; measured Organ distribution of F-18 signal, skin: 0.06

----------
So I've got a bunch of molecules here, and I need their Organ distribution of F-18 signal, muscle values.
Test: Biodistribution: organ distribution of F-18 signal in mice
Assay type: in vivo, male NMRI mice
Settings: muscle, 30 min post i.v. injection

Quick one: give me Organ distribution of F-18 signal, muscle for each item below, same order please.
1. O=C(NCC(=O)N1CCN(c2ccc(OCc3ccccc3)cc2)CC1)c1ccnc([18F])c1 [Example 11c]
2. O=C(NCC(=O)N1CCN(c2ccc(OCc3ccccc3)cn2)CC1)c1ccnc([18F])c1 [Example 14f]
3. O=C(NCC(=O)N1CCN(c2ccc(OCc3ccccc3)cc2)CC1)c1ccc([18F])nc1 [Example 10e]
4. O=C(NCC(=O)N1CCN(c2ccc(OCc3ccccc3)cc2)CC1)c1cccc(OCC[18F])c1

1.03 % ID/g
0.62 % ID/g
1.16 % ID/g
1.95 % ID/g

Lookup result for O=C(NCC(=O)N1CCN(c2ccc(OCc3ccccc3)cc2)CC1)c1cccnc1[18F] [Example 12c] ; measured Organ distribution of F-18 signal, muscle: 0.88 % ID/g

----------
Assay: Biodistribution: organ distribution of F-18 signal in mice
Type: in vivo, male NMRI mice
Conditions: intestine (with content), 2 min post i.v. injection
Recorded Metric: Organ distribution of F-18 signal, intestine (% ID/g)
Numbers only, in % ID/g.

Quick one: give me Organ distribution of F-18 signal, intestine for each item below, same order please.
1. O=C(NCC(=O)N1CCN(c2ccc(OCc3ccccc3)cn2)CC1)c1ccnc([18F])c1 [Example 14f]
2. O=C(NCC(=O)N1CCN(c2ccc(OCc3ccccc3)cc2)CC1)c1ccnc([18F])c1 [Example 11c]
3. O=C(NCC(=O)N1CCN(c2ccc(OCc3ccccc3)cc2)CC1)c1cccc(OCC[18F])c1
4. O=C(NCC(=O)N1CCN(c2ccc(OCc3ccccc3)cc2)CC1)c1cccnc1[18F] [Example 12c]
5. O=C(NCC(=O)N1CCN(c2ccc(OCc3ccccc3)cc2)CC1)c1ccc([18F])nc1 [Example 10e]

[2.27, 2.14, 1.93, 1.78, 2.13]

----------
So I've got a bunch of compounds here, and I need their Organ distribution of F-18 signal, tail values.
Experiment: Biodistribution: organ distribution of F-18 signal in mice
Assay type: in vivo, male NMRI mice
Settings: tail, 60 min post i.v. injection
Answers are plain numbers, in % ID/g.

Example compounds with recorded Organ distribution of F-18 signal, tail:
1. O=C(NCC(=O)N1CCN(c2ccc(OCc3ccccc3)cc2)CC1)c1ccnc([18F])c1 [Example 11c]: 0.87
2. O=C(NCC(=O)N1CCN(c2ccc(OCc3ccccc3)cc2)CC1)c1ccc([18F])nc1 [Example 10e]: 1.00
3. O=C(NCC(=O)N1CCN(c2ccc(OCc3ccccc3)cn2)CC1)c1ccnc([18F])c1 [Example 14f]: 0.67
4. O=C(NCC(=O)N1CCN(c2ccc(OCc3ccccc3)cc2)CC1)c1cccnc1[18F] [Example 12c]: 3.08

Then this compound:
Lookup result for O=C(NCC(=O)N1CCN(c2ccc(OCc3ccccc3)cc2)CC1)c1cccc(OCC[18F])c1 ; measured Organ distribution of F-18 signal, tail: 2.57

----------
So I've got a bunch of compounds here, and I need their Organ distribution of F-18 signal, brain values.
Assay: Biodistribution: organ distribution of F-18 signal in mice
Type: in vivo, male NMRI mice
Conditions: brain, 5 min post i.v. injection

Example compounds with recorded Organ distribution of F-18 signal, brain:
1. O=C(NCC(=O)N1CCN(c2ccc(OCc3ccccc3)cc2)CC1)c1ccc([18F])nc1 [Example 10e]: 4.33 % ID/g
2. O=C(NCC(=O)N1CCN(c2ccc(OCc3ccccc3)cc2)CC1)c1cccc(OCC[18F])c1 [Example 3g]: 4.14 % ID/g
3. O=C(NCC(=O)N1CCN(c2ccc(OCc3ccccc3)cn2)CC1)c1ccnc([18F])c1 [Example 14f]: 3.14 % ID/g
4. O=C(NCC(=O)N1CCN(c2ccc(OCc3ccccc3)cc2)CC1)c1cccnc1[18F] [Example 12c]: 4.60 % ID/g

Then this compound:
Lookup result for O=C(NCC(=O)N1CCN(c2ccc(OCc3ccccc3)cc2)CC1)c1ccnc([18F])c1 [Example 11c] ; measured Organ distribution of F-18 signal, brain: 4.73 % ID/g

----------
Test: Biodistribution: organ distribution of F-18 signal in mice
Format: in vivo, male NMRI mice
Conditions: adrenals, 2 min post i.v. injection
Threshold check on Organ distribution of F-18 signal, adrenals: at or above 8 % ID/g gives met, strictly below gives not met.

1) O=C(NCC(=O)N1CCN(c2ccc(OCc3ccccc3)cc2)CC1)c1cccc(OCC[18F])c1: not met
2) O=C(NCC(=O)N1CCN(c2ccc(OCc3ccccc3)cc2)CC1)c1cccnc1[18F] [Example 12c]: not met
3) O=C(NCC(=O)N1CCN(c2ccc(OCc3ccccc3)cn2)CC1)c1ccnc([18F])c1 [Example 14f]: met

Does Organ distribution of F-18 signal, adrenals meet or surpass 8 % ID/g for O=C(NCC(=O)N1CCN(c2ccc(OCc3ccccc3)cc2)CC1)c1ccnc([18F])c1 [Example 11c] ? met

----------
Assay: Biodistribution: organ distribution of F-18 signal in mice
Assay type: in vivo, male NMRI mice
Conditions: muscle, 60 min post i.v. injection
Recorded Metric: Organ distribution of F-18 signal, muscle (% ID/g)
Answers are plain numbers, in % ID/g.

Example compounds with recorded Organ distribution of F-18 signal, muscle:
1) O=C(NCC(=O)N1CCN(c2ccc(OCc3ccccc3)cc2)CC1)c1ccnc([18F])c1 [Example 11c]: 0.38
2) O=C(NCC(=O)N1CCN(c2ccc(OCc3ccccc3)cc2)CC1)c1ccc([18F])nc1 [Example 10e]: 0.34
3) O=C(NCC(=O)N1CCN(c2ccc(OCc3ccccc3)cc2)CC1)c1cccnc1[18F] [Example 12c]: 0.47
4) O=C(NCC(=O)N1CCN(c2ccc(OCc3ccccc3)cn2)CC1)c1ccnc([18F])c1 [Example 14f]: 0.26

Then this compound:
Lookup result for O=C(NCC(=O)N1CCN(c2ccc(OCc3ccccc3)cc2)CC1)c1cccc(OCC[18F])c1 ; measured Organ distribution of F-18 signal, muscle: 1.31

----------
Assay: Biodistribution: organ distribution of F-18 signal in mice
Assay type: in vivo, male NMRI mice
Conditions: thyroid, 30 min post i.v. injection
So I've got a bunch of molecules here, and I need their Organ distribution of F-18 signal, thyroid values.
# output: numeric value plus its unit

Example molecules with recorded Organ distribution of F-18 signal, thyroid:
1. O=C(NCC(=O)N1CCN(c2ccc(OCc3ccccc3)cc2)CC1)c1ccc([18F])nc1 [Example 10e]: 1.26 % ID/g
2. O=C(NCC(=O)N1CCN(c2ccc(OCc3ccccc3)cn2)CC1)c1ccnc([18F])c1 [Example 14f]: 0.94 % ID/g
3. O=C(NCC(=O)N1CCN(c2ccc(OCc3ccccc3)cc2)CC1)c1cccc(OCC[18F])c1: 1.78 % ID/g

Quick one: give me Organ distribution of F-18 signal, thyroid for each item below, same order please.
1. O=C(NCC(=O)N1CCN(c2ccc(OCc3ccccc3)cc2)CC1)c1ccnc([18F])c1 [Example 11c]
2. O=C(NCC(=O)N1CCN(c2ccc(OCc3ccccc3)cc2)CC1)c1cccnc1[18F] [Example 12c]

1: 1.08 % ID/g; 2: 1.92 % ID/g

----------
Assay: Biodistribution: organ distribution of F-18 signal in mice
Format: in vivo, male NMRI mice
Conditions: tail, 30 min post i.v. injection
Recorded Metric: Organ distribution of F-18 signal, tail (% ID/g)
One number for each entry, in % ID/g.

Example compounds with recorded Organ distribution of F-18 signal, tail:
1. O=C(NCC(=O)N1CCN(c2ccc(OCc3ccccc3)cc2)CC1)c1ccc([18F])nc1 [Example 10e]: 1.86
2. O=C(NCC(=O)N1CCN(c2ccc(OCc3ccccc3)cn2)CC1)c1ccnc([18F])c1 [Example 14f]: 2.28
3. O=C(NCC(=O)N1CCN(c2ccc(OCc3ccccc3)cc2)CC1)c1ccnc([18F])c1 [Example 11c]: 3.21
4. O=C(NCC(=O)N1CCN(c2ccc(OCc3ccccc3)cc2)CC1)c1cccnc1[18F] [Example 12c]: 2.72

Then this compound:
Lookup result for O=C(NCC(=O)N1CCN(c2ccc(OCc3ccccc3)cc2)CC1)c1cccc(OCC[18F])c1 ; measured Organ distribution of F-18 signal, tail: 4.73
